Tested on: MKL-1
Test details: qHTS assay to identify novel small-molecules to repurpose for Merkel cell carcinoma treatment (AID 1296009); further: nearly all actives have a fitted effect of over 60% in size
Assay setup: MCC and control cell lines, CellTiter-Glo viability, 72 h; series mostly up to 46 µM
Results filed as inconclusive are left out. The source made the active and inactive calls. The call rests on the fitted dose curve; in most records, active means well fitted inhibition curve with a large enough effect; inconclusive means small, poorly fitted or top-dose-only effect; inactive means flat fitted curve, though single readings scatter.
Parameter call: string, one of true (1) = active, false (0) = inactive

Take a look at these entries with their results.
[
  {
    "Compound": "CCN(CC)C(=O)N1CCN(C)CC1",
    "Assay system": "MKL-1",
    "Qualitative label": "false (0)"
  },
  {
    "Compound": "O=C(Nc1ccc(Oc2ccc(Cl)cc2)c(Cl)c1)c1cc(I)cc(I)c1O",
    "Assay system": "MKL-1",
    "Qualitative label": "false (0)"
  }
]

### Prompt Per the assay record, what outcome was assigned to CCCCOc1cc(C(=O)NCCN(CC)CC)c2ccccc2n1 ?
### Response false (0)

### Prompt // next record CCCSS/C(CCO)=C(\C)N(C=O)Cc1cnc(C)nc1N
### Response true (1)

* * *

Test system: CP335
Test details: qHTS profiling for inhibitors of Plasmodium falciparum proliferation (AID 504749); further: nearly all actives have a fitted effect of over 60% in size
Assay setup: P. falciparum in erythrocytes, SYBR Green DNA, 72 h; series mostly up to 28.7 µM
Inconclusive results are not listed. Active and inactive are the calls of the source. Calls follow the shape of the dose curve; as a rule, active = well fitted inhibition curve with a large enough effect; inconclusive = small, poorly fitted or top-dose-only effect; inactive = flat fitted curve, though single readings scatter.
Parameter call: string, one of true for active, false for inactive

Take a look at these entries with their results.
[
  {
    "Compound": "CNCCC(Oc1ccccc1C)c1ccccc1 (stereo not given)",
    "Assay system": "CP335",
    "Qualitative label": "false"
  },
  {
    "Compound": "Cc1ccnc(NS(=O)(=O)c2ccc(N)cc2)n1",
    "Assay system": "CP335",
    "Qualitative label": "false"
  },
  {
    "Compound": "C[C@@H](CN(C)C)CN1c2ccccc2Sc2ccccc21",
    "Assay system": "CP335",
    "Qualitative label": "false"
  },
  {
    "Compound": "CCCCC(CC)CN=C(N)NC(N)=NCCCCCCN=C(N)NC(N)=NCC(CC)CCCC (stereo not given)",
    "Assay system": "CP335",
    "Qualitative label": "true"
  },
  {
    "Compound": "C1CCc2nnnn2CC1",
    "Assay system": "CP335",
    "Qualitative label": "false"
  }
]

### Prompt Per the assay record, what outcome was assigned to CCCCCCCCCCCCCCCC[N+](C)(C)CC ?
### Response true

### Prompt // next record CC(=O)N/N=C/c1ccc([N+](=O)[O-])o1
### Response false

### Prompt // next record CCOC(=O)COc1ccc2c(C)c(CCN(CC)CC)c(=O)oc2c1Cl
### Response false

### Prompt // next record CC(=O)Nc1c(I)cc(I)c(C(=O)O)c1I
### Response false

### Prompt // next record Oc1c(I)cc(Cl)c2cccnc12
### Response false

### Prompt // next record COc1cccc2c1C(=O)c1c(O)c3c(c(O)c1C2=O)C[C@@](O)(C(C)=O)C[C@@H]3O[C@H]1C[C@H](N)[C@H](O)[C@H](C)O1
### Response true

### Prompt // next record Nc1cc(Cl)c(NC2=NCCN2)c(Cl)c1
### Response false

### Prompt // next record CCCCCC=CCC=CCCCCCCCC(=O)OCC
### Response false
